- experimentalProtocol: Fraction absorbed in Sprague-Dawley rat at 5 mg/kg, po
- Assay type: ADME, organism-based
- Set-up: dose 5 mg/kg, route oral
- assaySetup: in vivo, read-out: Fabs
valueType: Fa (%)

Cn1c(CN2C[C@@H]3C(COc4cccc(Cl)c4)[C@@H]3C2)nc2ncccc21 (stereo partly drawn) ... 84

a = Cn1c(CN2C[C@@H]3C(COc4ccccc4)[C@@H]3C2)nc2ccccc21 (stereo partly drawn)
b = Cn1c(CN2C[C@@H]3C(COc4ccc(Cl)cn4)[C@@H]3C2)nc2ccccc21 (stereo partly drawn)
*Q* Which has the higher Fa, a or b ? Which one? Tell me its label.
*A* b

====

- experimentalProtocol: Ratio of drug level in brain to plasma in Sprague-Dawley rat at 10 mg/kg, sc
- Type: ADME, organism-based
- Set-up: dose 10 mg/kg, route subcutaneous
- assaySetup: brain and plasma, read-out: BPR
valueType: Kp
// keep it numeric: no unit symbol after the value

*Q* Quick one: Kp of Cn1c(CN2C[C@@H]3C(COc4ccccc4)[C@@H]3C2)nc2ccccc21 (stereo partly specified) ?
*A* 2

====

- experimentalProtocol: Oral bioavailability in Sprague-Dawley rat at 5 mg/kg
- Type: ADME, organism-based
- assaySetup: in vivo
valueType: bioavailability (%)

Cn1c(CN2C[C@@H]3C(COc4ccc(C(F)(F)F)cn4)[C@@H]3C2)nc2ccccc21 (some centres undefined) ... 27

P = Cn1c(CN2C[C@@H]3C(COc4cccc(Cl)c4)[C@@H]3C2)nc2ncccc21 (some centres undefined)
Q = Cn1c(CN2C[C@@H]3C(COc4ccc(Cl)cn4)[C@@H]3C2)nc2ccccc21 (some centres undefined)
*Q* Which has the higher bioavailability, P or Q ? Which one? Tell me its label.
*A* P
